src = a melting point compilation (Tetko et al.; mined from patent text by program, amines drawn as free bases though some values may be those of a salt)

Examples of molecules with documented melting point follow.

Example entries begin here.
> print(dat)
                                   molecule     test.value
1  COc1cc(C(=O)N2CCC(CCN3CCC(=C(c4ccccc4)c4ccccc4)CC3)(c3ccc(Cl)c(Cl)c3)C2)cc(OC)c1OC (stereo not drawn)    90 to 94 °C
2                           Cc1nc(O)sc1CCCl  151 to 152 °C
3  CC(C)(C)[Si](C)(C)Oc1ccc(-c2ccc(C3CCC(c4c(F)cccc4F)=N3)cc2)cc1 (stereo not drawn)          33 °C

stdin: Tell us which melting point value is on record for CN(C)C(=O)c1cccc(CN2C(=O)C3(COc4cc5c(cc43)OCCO5)c3ccccc32)c1 (stereo not drawn)
stdout: 90 to 96 °C

stdin: Could you please provide reported melting point for Cc1c(Br)c(N2CC[C@H](N(C)C)C2)c2oc(C3CC3)nc2c1C#N ? Thanks!
stdout: 82 to 86 °C

stdin: Note down melting point recorded for COC(=O)c1ccc(NCc2cccc(F)c2)cc1
stdout: 107 to 110 °C

stdin: Provide one value: measured melting point of c1ccc(Sc2ccc(Sc3ccccc3)cc2)cc1
stdout: 78 to 79 °C

stdin: Give reported melting point value for N#Cc1ccc(N2CCC(=O)CC2)nc1
stdout: 171 to 173 °C

stdin: Kindly indicate its recorded melting point. Item: CSc1ncc2nc(C)nc(Nc3ccc(F)c(Cl)c3)c2n1
stdout: 70 to 75 °C

stdin: Supply measured melting point of CCOC(=O)c1ccc(-c2ccc(-c3ccccc3)c(-c3cc4c(cc3O)C(C)(C)CCC4(C)C)c2)cc1 in your reply.
stdout: 145 °C

stdin: Please give the documented melting point of CC(C)(C)C1OC1C(O)c1ccc(F)cc1 (stereo not drawn)
stdout: 56 to 59 °C

stdin: Consider the molecule Cc1c(SCCN2CCOCC2)ccnc1CSc1nc2cc(C(=O)O)ccc2[nH]1 . State its measured melting point.
stdout: 120 to 124 °C

stdin: Give the value of melting point reported for the following: COc1cc2ncn(CCCCCl)c(=O)c2cc1OC
stdout: 117 °C

stdin: Determine its reported melting point: OCn1nnc2ccccc21
stdout: 148 °C

stdin: Give recorded melting point. COC(=O)Cc1coc2cc(OCc3cc(-c4ccc(Cl)cc4)on3)ccc12
stdout: 136 to 137 °C

stdin: Note melting point for the molecule shown: Cc1sc(-c2ccccc2)nc1COc1ccc(Cn2cc(CC(=O)O)c(-c3ccccc3)n2)cn1
stdout: 140 to 141 °C

stdin: Tell me measured melting point for O=c1[nH]c2ncc(-c3ccc(O)cc3)nc2n1CC1CCCN1 (stereo not drawn) please.
stdout: 178 to 180 °C

---

metric_name: melting point

> print(dat)
                                   compound    metric.name     test.value
1  O=C(NC[C@H]1CN(c2ccc3c(c2)CCCc2cn[nH]c2-3)C(=O)O1)C(F)F  melting point  147 to 150 °C
2  CCOCC1(F)CCN(c2ccc(N3C[C@H](CNC(C)=O)OC3=O)cc2F)CC1  melting point  109 to 111 °C
3  COc1ccc(Cl)cc1-n1cncc1-c1ccc(C(F)(F)F)cc1  melting point  158 to 159 °C
4  O=C(Nc1nc(-c2ccccc2)c(-c2nc3ccccc3c(=O)n2-c2ccc(Cl)cc2)s1)c1ccccc1  melting point       > 275 °C
5  N=C(Nc1ccc(C(F)(F)F)cc1)Nc1ncccc1OCc1ccccc1  melting point  154 to 155 °C

stdin: Identify measured melting point associated with Cn1ncc(C(=O)O)c1C(=O)Nc1ccn2nc(N3CCCC3)nc2c1
stdout: > 250 °C

stdin: Assign melting point to the following record: Cc1noc(NS(=O)(=O)c2ccccc2-c2ccc(-n3cccn3)cc2)c1C
stdout: 88 to 98 °C

stdin: Look up melting point of CC(=O)Oc1cccc2oc(C(=O)OCc3ccc(Cl)cc3)c(C)c12 and report it.
stdout: 95 to 100 °C

stdin: Kindly indicate its recorded melting point. Item: CC(C)(C)c1cc(C=[N+]([O-])C(C)(C)C)c(O)c(C(C)(C)C)c1
stdout: 235 °C

stdin: Provide one value: measured melting point of CC(C)(C)c1cc(C(c2ccc([N+](=O)[O-])cc2)N2CCCCC2)cc(C(C)(C)C)c1O (stereo not given)
stdout: 147 to 148 °C

stdin: Output measured melting point for this item: NS(=O)(=O)c1ccc(-c2cc3c(cc2-c2ccc(F)cc2)OCO3)cc1
stdout: 191 to 192 °C

stdin: Give the value of melting point reported for the following: O=C1Nc2ccc(Br)cc2C2(c3ccccn3)OCCN12 (stereo not given)
stdout: 241 to 242 °C
